From: ChEMBL document CHEMBL1125755

system: Candida albicans; experiment: In vitro minimum inhibitory concentration which is the lowest concentration at which no signs of fungal growth were detected against Candida albicans 124; format: functional
measurement-name: MIC (µg/mL)

compound: CN(C/C=C/C#CC(C)(C)C)Cc1cccc2c(Br)csc12.Cl
meas-value: 0.8
//
compound: CN(C/C=C/C#CC(C)(C)C)Cc1cccc2ccccc12 [TERBINAFINE]
meas-value: 25
//
compound: CN(C/C=C/C#CC(C)(C)C)Cc1cccc2c(C#N)csc12.Cl
meas-value: 3.13
//
compound: CN(C/C=C/C#CC(C)(C)C)Cc1cccc2c(C=O)csc12
meas-value: 6.25
